Reference source for all entries: patent US5532263A

Each entry below carries its recorded EC50.
- EXPERIMENTAL_SYSTEM: HeLa cell topo II (Homo sapiens, UniProt P11388)
- Sequence (P11388 whole entry): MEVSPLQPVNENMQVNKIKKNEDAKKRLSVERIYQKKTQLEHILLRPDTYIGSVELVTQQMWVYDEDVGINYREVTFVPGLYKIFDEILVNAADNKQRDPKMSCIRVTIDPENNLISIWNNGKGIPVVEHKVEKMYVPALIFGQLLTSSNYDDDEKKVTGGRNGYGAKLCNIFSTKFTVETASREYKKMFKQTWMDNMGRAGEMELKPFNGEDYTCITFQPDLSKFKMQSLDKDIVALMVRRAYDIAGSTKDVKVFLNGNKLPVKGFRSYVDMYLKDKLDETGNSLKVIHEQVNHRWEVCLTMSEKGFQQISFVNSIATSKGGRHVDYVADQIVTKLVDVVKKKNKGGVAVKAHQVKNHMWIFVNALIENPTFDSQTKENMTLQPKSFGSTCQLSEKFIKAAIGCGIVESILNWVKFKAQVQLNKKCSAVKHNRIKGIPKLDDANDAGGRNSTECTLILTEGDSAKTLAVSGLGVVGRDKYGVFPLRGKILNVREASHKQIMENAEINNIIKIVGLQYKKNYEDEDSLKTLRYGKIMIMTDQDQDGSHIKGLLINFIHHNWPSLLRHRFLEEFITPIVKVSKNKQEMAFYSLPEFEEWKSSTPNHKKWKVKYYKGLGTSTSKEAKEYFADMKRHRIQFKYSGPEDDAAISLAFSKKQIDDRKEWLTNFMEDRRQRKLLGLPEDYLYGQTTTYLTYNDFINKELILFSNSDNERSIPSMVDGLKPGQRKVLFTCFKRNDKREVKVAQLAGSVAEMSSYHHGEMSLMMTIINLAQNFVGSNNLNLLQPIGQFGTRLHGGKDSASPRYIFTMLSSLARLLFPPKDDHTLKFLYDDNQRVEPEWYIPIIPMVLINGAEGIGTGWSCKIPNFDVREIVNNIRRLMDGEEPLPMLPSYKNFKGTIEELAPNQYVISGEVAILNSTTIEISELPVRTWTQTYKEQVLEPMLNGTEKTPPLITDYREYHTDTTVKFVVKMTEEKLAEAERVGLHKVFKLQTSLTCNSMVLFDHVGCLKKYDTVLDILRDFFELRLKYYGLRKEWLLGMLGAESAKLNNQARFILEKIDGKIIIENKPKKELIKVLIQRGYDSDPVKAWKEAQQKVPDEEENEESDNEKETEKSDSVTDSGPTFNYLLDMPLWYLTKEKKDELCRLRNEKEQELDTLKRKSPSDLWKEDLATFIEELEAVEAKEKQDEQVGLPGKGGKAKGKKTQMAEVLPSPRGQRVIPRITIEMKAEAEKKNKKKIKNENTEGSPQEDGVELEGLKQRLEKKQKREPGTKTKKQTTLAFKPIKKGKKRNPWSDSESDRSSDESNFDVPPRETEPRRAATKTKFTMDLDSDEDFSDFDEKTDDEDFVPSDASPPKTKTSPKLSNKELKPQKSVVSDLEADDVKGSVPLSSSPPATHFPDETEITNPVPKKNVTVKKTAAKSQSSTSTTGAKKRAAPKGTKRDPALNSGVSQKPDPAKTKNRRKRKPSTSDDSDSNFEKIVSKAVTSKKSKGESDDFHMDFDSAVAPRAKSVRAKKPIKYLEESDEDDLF
- ASSAY: Topoisomerase II inhibition: promotion of covalent complex formation between pBR322 DNA and topo II (SDS/K+ precipitation)
- Assay type: biochemical
- TEST_CONDITIONS: footnote k: bell-shaped dose response curve noted when determining the EC50; relative to 50% of m-AMSA maximum; read-out: topo II inhib EC50
Please give a number only; it is taken to be in nM.

A selection of reference data follows.
COMPOUND	EXPERIMENTAL_SYSTEM	EC50 (nM)
CCN(CC)CCn1nc2c3c(c(CNC(=O)OC)ccc31)Sc1ccc(O)cc1-2	HeLa cell topo II (Homo sapiens, UniProt P11388)	330
CCN(CC)CCn1nc2c3c(c(CNS(C)(=O)=O)ccc31)Sc1ccc(O)cc1-2	HeLa cell topo II (Homo sapiens, UniProt P11388)	550

For CCN(CC)CCNc1ccc(CN(C)S(C)(=O)=O)c2sc3ccccc3c(=O)c12 [WIN33377, reference compound] the compound record lists EC50 as 3000
